Test: Tmax in human plasma expressing CYP2C8*1/*1 polymorphism at 50 mg by LC/MS/MS analysis
Assay type: ADME, organism-based
Measured metric: Tmax (h)

>>> df
                                   compound  result_value
0  CCCCc1nc(Cl)c(CO)n1Cc1ccc(-c2ccccc2-c2nn[nH]n2)cc1 [LOSARTAN]           1.3

###

Experiment: Tmax in human plasma expressing CYP2C8*4 allele carrier polymorphism at 50 mg by LC/MS/MS analysis
Format: ADME, organism-based
Measured metric: Tmax (min)

>>> df
                                   compound  result_value
0  CCCCc1nc(Cl)c(CO)n1Cc1ccc(-c2ccccc2-c2nn[nH]n2)cc1 [LOSARTAN]            54
